All values here come from patent US12240844B2.

Target: LRRK2, LRRK2 (G2019S), DYRK1, CLK1 and TTK kinases (Homo sapiens, UniProt Q5S007)
Construct: LRRK2 IC50 (marked with *); other: LRRK2; Kinase HotSpot service (Reaction Biology), ATP 10 uM
Sequence (Q5S007 whole entry G2019S): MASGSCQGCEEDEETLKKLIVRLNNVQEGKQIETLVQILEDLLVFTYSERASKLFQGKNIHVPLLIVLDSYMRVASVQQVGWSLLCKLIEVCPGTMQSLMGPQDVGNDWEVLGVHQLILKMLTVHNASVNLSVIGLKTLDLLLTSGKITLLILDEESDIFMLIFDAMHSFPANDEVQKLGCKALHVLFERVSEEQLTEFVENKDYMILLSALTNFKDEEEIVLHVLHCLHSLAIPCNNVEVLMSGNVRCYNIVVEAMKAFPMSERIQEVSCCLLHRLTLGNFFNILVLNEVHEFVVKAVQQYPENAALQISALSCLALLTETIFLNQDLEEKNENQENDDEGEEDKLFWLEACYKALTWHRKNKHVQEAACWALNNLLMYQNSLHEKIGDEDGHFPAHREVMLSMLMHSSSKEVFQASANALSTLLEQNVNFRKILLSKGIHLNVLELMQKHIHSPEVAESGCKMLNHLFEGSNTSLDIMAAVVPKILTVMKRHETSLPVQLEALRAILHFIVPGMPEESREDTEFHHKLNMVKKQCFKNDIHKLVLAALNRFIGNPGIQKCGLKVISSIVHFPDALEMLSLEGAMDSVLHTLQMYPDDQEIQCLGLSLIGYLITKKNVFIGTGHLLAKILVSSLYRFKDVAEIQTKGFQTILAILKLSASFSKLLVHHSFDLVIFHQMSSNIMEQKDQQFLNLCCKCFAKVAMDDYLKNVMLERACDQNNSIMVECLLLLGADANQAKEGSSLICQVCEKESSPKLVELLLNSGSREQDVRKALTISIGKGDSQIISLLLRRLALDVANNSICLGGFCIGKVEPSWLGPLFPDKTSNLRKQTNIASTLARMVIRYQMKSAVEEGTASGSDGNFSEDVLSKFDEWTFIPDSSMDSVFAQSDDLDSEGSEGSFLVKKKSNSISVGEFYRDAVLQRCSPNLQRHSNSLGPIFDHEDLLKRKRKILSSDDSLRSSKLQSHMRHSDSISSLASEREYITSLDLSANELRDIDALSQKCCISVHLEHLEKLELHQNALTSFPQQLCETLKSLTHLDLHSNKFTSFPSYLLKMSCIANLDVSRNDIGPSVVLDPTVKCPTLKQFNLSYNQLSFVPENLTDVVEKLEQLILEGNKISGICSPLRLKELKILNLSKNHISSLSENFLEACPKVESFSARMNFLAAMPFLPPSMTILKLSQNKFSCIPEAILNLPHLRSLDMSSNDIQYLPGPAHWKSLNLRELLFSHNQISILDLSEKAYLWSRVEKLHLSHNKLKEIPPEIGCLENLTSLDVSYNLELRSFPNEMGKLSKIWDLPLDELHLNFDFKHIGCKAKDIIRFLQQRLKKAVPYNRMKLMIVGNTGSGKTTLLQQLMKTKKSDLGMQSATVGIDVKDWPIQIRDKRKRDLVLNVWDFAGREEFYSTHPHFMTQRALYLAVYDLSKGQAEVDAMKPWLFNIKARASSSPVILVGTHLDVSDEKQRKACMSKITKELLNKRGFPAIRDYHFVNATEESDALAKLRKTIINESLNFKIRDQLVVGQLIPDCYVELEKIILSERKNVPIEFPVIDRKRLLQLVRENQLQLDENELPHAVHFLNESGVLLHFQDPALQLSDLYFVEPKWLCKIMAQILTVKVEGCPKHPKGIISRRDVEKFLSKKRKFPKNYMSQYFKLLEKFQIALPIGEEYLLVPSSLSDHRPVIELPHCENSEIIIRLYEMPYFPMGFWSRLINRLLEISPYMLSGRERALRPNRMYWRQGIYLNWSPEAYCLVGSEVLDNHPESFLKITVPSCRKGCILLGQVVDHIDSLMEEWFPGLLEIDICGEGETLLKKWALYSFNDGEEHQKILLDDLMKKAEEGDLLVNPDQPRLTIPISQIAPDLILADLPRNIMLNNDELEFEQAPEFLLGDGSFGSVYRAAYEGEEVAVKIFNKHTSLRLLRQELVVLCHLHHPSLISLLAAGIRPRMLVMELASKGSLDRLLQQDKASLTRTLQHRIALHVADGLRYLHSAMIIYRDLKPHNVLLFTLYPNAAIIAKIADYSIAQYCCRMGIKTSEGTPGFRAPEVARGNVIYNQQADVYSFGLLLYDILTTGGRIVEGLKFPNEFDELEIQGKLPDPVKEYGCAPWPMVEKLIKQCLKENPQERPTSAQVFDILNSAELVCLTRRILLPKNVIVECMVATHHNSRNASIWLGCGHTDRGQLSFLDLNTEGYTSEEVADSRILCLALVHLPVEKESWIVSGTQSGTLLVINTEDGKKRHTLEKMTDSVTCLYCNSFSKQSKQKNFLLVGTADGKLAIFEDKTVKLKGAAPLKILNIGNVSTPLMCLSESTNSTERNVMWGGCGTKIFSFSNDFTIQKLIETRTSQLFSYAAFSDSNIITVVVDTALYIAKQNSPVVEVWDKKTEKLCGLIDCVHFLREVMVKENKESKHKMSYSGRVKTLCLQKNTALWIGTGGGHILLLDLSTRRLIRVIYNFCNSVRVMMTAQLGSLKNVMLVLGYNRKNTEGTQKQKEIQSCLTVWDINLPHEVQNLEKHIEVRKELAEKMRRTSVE
Test: Enzyme IC50 by Kinase HotSpot service (Reaction Biology Corporation), values marked with *
Conditions: LRRK2, ATP 10 uM
recorded.metric: IC50

Below are worked cases with known answers.
| smiles.string | recorded.metric | result |
| --- | --- | --- |
| COc1cc(S(=O)(=O)N2CCC(N3CCOCC3)CC2)ccc1Nc1cc(C2CC2)c2c(C(F)(F)F)c[nH]c2n1 | IC50 | < 100 nM |
| CNc1cc(Nc2ccc(S(=O)(=O)N3CCC(N4CCOCC4)CC3)cc2OC)nc2[nH]cc(C(F)(F)F)c12 | IC50 | < 100 nM |

// query Please give measured IC50 of the following entry: COc1cc(S(=O)(=O)N2CCC(N3C[C@@H]4C[C@H]3CO4)CC2)ccc1Nc1cc(C2CC2)c2c(C(F)(F)F)c[nH]c2n1
// result < 100 nM
